# MEASURED TARGET: UniProt P08908
# Sequence (P08908 whole entry): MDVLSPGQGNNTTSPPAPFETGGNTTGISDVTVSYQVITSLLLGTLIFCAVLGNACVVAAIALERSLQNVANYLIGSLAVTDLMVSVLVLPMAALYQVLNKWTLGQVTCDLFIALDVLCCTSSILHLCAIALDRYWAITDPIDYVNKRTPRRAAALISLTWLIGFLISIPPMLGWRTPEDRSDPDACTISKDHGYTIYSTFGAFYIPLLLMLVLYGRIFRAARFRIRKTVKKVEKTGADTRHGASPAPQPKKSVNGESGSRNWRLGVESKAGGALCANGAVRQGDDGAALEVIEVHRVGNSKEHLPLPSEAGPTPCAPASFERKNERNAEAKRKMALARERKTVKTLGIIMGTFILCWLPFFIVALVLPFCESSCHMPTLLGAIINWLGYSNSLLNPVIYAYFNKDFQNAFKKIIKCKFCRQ
ASSAY READOUT: pKi
Lab note — pKi values are minus log10 of concentrations in M.

Exam item: Lab request: please report pKi under test system UniProt P08908 for N#Cc1ccc(N2CCC(NCCC(O)c3csc4ccccc34)CC2)cc1 (stereo unspecified)
Marked response: 6.80

----------
# MEASURED TARGET: 5-hydroxytryptamine receptor 7 (Homo sapiens, UniProt P34969)
# Sequence (P34969 whole entry): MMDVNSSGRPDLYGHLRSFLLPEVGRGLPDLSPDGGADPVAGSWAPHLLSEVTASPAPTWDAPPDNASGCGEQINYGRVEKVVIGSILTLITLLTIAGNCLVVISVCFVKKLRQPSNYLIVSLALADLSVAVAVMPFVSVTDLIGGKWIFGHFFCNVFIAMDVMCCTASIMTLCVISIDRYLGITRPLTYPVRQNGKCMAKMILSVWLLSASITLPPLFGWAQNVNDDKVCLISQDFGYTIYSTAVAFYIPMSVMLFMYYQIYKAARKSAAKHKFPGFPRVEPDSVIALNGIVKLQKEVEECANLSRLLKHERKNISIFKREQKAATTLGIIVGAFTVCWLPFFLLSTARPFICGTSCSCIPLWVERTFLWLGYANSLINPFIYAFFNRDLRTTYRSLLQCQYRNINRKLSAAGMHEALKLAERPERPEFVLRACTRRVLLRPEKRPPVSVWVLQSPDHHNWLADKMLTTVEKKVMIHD
ASSAY READOUT: Ki

Exam item: Item N#Cc1ccc(N2CCCN(CCC(=O)c3csc4ccccc34)CC2)cc1 has what recorded Ki?
Marked response: 15.1 µM

Exam item: Okay, and O=C(CCNC1CCN(c2ccc([N+](=O)[O-])cc2C(F)(F)F)CC1)c1csc2ccccc12 ?
Marked response: 9.12 µM

Exam item: // same read-out, input: N#Cc1ccc(N2CCN(CCC(O)c3csc4ccccc34)CC2)cc1 (centres undefined)
Marked response: 12.6 µM

Exam item: Further, for O=C(CCN1CCCN(c2ccc([N+](=O)[O-])cc2C(F)(F)F)CC1)c1csc2ccccc12 ?
Marked response: > 100 µM

Exam item: Quick one: N#Cc1ccc(N2CCCN(CCC(O)c3csc4ccccc34)CC2)cc1 (centres undefined)
Marked response: 0.263 µM

Exam item: Another: N#Cc1ccc(N2CCC(NCCC(O)c3csc4ccccc34)CC2)cc1 (centres undefined)
Marked response: 1.66 µM

Exam item: Another compound to look at: O=C(CCN[C@H]1CCN(c2ccc([N+](=O)[O-])cc2)C1)c1csc2ccccc12
Marked response: > 100 µM

Exam item: Repeat with O=C(CCN1CC[C@@H](Nc2ccc([N+](=O)[O-])cc2)C1)c1csc2ccccc12
Marked response: > 100 µM

Exam item: Record: O=C(CCN[C@H]1CCN(c2ccc([N+](=O)[O-])cc2C(F)(F)F)C1)c1csc2ccccc12
Marked response: > 100 µM

----------
# MEASURED TARGET: UniProt P31652
# Sequence (P31652 whole entry): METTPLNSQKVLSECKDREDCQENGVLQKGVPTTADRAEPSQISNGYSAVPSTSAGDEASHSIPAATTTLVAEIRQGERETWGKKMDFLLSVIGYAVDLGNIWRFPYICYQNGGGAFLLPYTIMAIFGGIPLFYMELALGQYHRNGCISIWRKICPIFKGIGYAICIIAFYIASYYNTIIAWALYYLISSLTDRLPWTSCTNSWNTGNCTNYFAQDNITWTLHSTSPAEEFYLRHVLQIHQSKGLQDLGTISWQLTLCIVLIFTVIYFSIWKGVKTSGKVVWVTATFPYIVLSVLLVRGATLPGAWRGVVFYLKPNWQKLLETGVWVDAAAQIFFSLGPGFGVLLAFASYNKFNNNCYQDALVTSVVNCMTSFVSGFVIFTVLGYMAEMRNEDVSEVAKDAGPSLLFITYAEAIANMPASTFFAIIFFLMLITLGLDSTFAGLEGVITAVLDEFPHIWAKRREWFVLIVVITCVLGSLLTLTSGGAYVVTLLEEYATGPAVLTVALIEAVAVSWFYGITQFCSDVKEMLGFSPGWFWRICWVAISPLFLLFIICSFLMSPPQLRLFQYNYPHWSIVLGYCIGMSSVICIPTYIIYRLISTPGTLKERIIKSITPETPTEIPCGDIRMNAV
# ASSAY PROTOCOL: Displacement of [3H]5-HT from of SERT in rat midbrain homogenates at 1 uM after 5 mins by scintillation counting
# Format: tissue-based
Task for the reader: assign each of the following compounds its reported inhibition.

Exam item: Given the entry O=C(CCN1CCN(c2ccc([N+](=O)[O-])cc2)CC1)c1csc2ccccc12 , report its measured inhibition.
Marked response: 2.1%

Exam item: Cool, now OC(CCN1CCC(N2CCOCC2)CC1)c1csc2ccccc12 (centres undefined)
Marked response: 2.2%

Exam item: Queued: O=C(CCN[C@H]1CCN(c2ccc([N+](=O)[O-])cc2)C1)c1csc2ccccc12
Marked response: 0%

Exam item: Next record, please: O=C(CCN1CCC(N2CCOCC2)CC1)c1csc2ccccc12
Marked response: 11.1%

Exam item: Lookup N#Cc1ccc(N2CCC(NCCC(O)c3csc4ccccc34)CC2)cc1 (centres undefined)
Marked response: 53.1%

Exam item: Field entry: N#Cc1ccc(N2CCCN(CCC(=O)c3csc4ccccc34)CC2)cc1
Marked response: 1.2%

Exam item: Would you mind doing O=[N+]([O-])c1ccc(N2CCC(NCCC(O)c3csc4ccccc34)C2)cc1 (single isomer, unassigned) as well?
Marked response: 28.1%

Exam item: Do the same for O=C(CCN1CC[C@@H](Nc2ccc([N+](=O)[O-])cc2)C1)c1csc2ccccc12 please
Marked response: 17.9%

Exam item: What do you have for N#Cc1ccc(N2CCN(CCC(O)c3csc4ccccc34)CC2)cc1 (centres undefined) ?
Marked response: 43.5%

Exam item: N#Cc1ccc(N2CC[C@H](NCCC(=O)c3csc4ccccc34)C2)cc1 , same question.
Marked response: 0%

Exam item: Then what about the compound O=C(CCN[C@@H]1CCN(c2ccc([N+](=O)[O-])cc2)C1)c1csc2ccccc12 ?
Marked response: 9%

Exam item: Would you mind doing O=C(CCN[C@H]1CCN(c2ccc([N+](=O)[O-])cc2C(F)(F)F)C1)c1csc2ccccc12 as well?
Marked response: 28.4%

Exam item: For O=C(CCN1CCN(c2ccc([N+](=O)[O-])cc2)CC1)c1csc2ccc(F)cc12 then?
Marked response: 0%

Exam item: Now try N#Cc1ccc(N2CCN(CCC(=O)c3csc4ccccc34)CC2)cc1 .
Marked response: 5.4%

Exam item: What would you report for O=C(CCN1CCCN(c2cnc3ccccc3n2)CC1)c1csc2ccccc12 ?
Marked response: 23.8%

Exam item: Also, O=[N+]([O-])c1ccc(N2CCCN(CCC(O)c3csc4ccccc34)CC2)c(C(F)(F)F)c1 (centres undefined) please.
Marked response: 0%

Exam item: Now the same for O=C(CCNC1CCN(c2ccc([N+](=O)[O-])cc2)CC1)c1csc2ccc(F)cc12
Marked response: 3.1%

Exam item: // same read-out, input: N#Cc1ccc(N2CCCN(CCC(O)c3csc4ccccc34)CC2)cc1 (centres undefined)
Marked response: 19.7%

Exam item: Would you kindly repeat that for O=C(CCNC1CCN(c2ccc([N+](=O)[O-])cc2C(F)(F)F)CC1)c1csc2ccccc12 ?
Marked response: 26.9%
